From: the supplement of paper PMC9112550

tested on: Escherichia coli TOP10; assay: shrunken log2 fold change of peptide-encoding DNA abundance (4.5 h post-induction vs induction); higher = less antimicrobial activity (less host growth inhibition); conditions: time post-induction: 4.5 h; library: site-saturation at positions 5, 18, 19, 20
# shrunken log2 fold change >= -0.03 gives Satisfied, anything below gives Not satisfied

Before answering, review these 10 worked examples.
SEQUENCE STRING: RRIRMRPPRLPRPRPRPCMEPRP
CLASS ASSIGNMENT: Satisfied
//
SEQUENCE STRING: RRIRTRPPRLPRPRPRPVWEPRP
CLASS ASSIGNMENT: Satisfied
//
SEQUENCE STRING: RRIRFRPPRLPRPRPRPKEKPRP
CLASS ASSIGNMENT: Not satisfied
//
SEQUENCE STRING: RRIRVRPPRLPRPRPRPPCWPRP
CLASS ASSIGNMENT: Satisfied
//
SEQUENCE STRING: RRIRQRPPRLPRPRPRPNINPRP
CLASS ASSIGNMENT: Not satisfied
//
SEQUENCE STRING: RRIRARPPRLPRPRPRPLNNPRP
CLASS ASSIGNMENT: Not satisfied
//
SEQUENCE STRING: RRIRRRPPRLPRPRPRPHQEPRP
CLASS ASSIGNMENT: Not satisfied
//
SEQUENCE STRING: RRIRGRPPRLPRPRPRPQLWPRP
CLASS ASSIGNMENT: Satisfied
//
SEQUENCE STRING: RRIRLRPPRLPRPRPRPMDEPRP
CLASS ASSIGNMENT: Not satisfied
//
SEQUENCE STRING: RRIRIRPPRLPRPRPRPTHLPRP
CLASS ASSIGNMENT: Satisfied

Q: Is reported shrunken log2 fold change greater than or equal to -0.03 here: RRIRCRPPRLPRPRPRPDGAPRP
Ans: Satisfied

Q: hey, is shrunken log2 fold change for this one >= -0.03? RRIRSRPPRLPRPRPRPMAWPRP
Ans: Satisfied

Q: Confirm if shrunken log2 fold change reported for the sequence RRIRNRPPRLPRPRPRPNMSPRP is -0.03 or above.
Ans: Not satisfied

Q: Can RRIRDRPPRLPRPRPRPSETPRP be said to have shrunken log2 fold change at or above -0.03?
Ans: Not satisfied

Q: Dear colleague, could you confirm whether RRIRNRPPRLPRPRPRPQCFPRP has shrunken log2 fold change at or above -0.03?
Ans: Satisfied

###

Quick reference: shrunken log2 fold change of the listed items.
tested on: Escherichia coli TOP10; assay: shrunken log2 fold change of peptide-encoding DNA abundance (4.5 h post-induction vs induction); higher = less antimicrobial activity (less host growth inhibition); settings: time post-induction: 4.5 h; library: site-saturation at positions 5, 18, 19, 20
Lab note: write the figure by itself, no unit.

SEQUENCE STRING: RRIRLRPPRLPRPRPRPERLPRP
TARGET OF ASSAY: Escherichia coli TOP10
shrunken log2 fold change: 0.466

SEQUENCE STRING: RRIRWRPPRLPRPRPRPRHWPRP
TARGET OF ASSAY: Escherichia coli TOP10
shrunken log2 fold change: 0.0523

SEQUENCE STRING: RRIRPRPPRLPRPRPRPVDAPRP
TARGET OF ASSAY: Escherichia coli TOP10
shrunken log2 fold change: 0.173

SEQUENCE STRING: RRIRARPPRLPRPRPRPYINPRP
TARGET OF ASSAY: Escherichia coli TOP10
shrunken log2 fold change: -0.413

SEQUENCE STRING: RRIRWRPPRLPRPRPRPTNCPRP
TARGET OF ASSAY: Escherichia coli TOP10
shrunken log2 fold change: -0.0666

SEQUENCE STRING: RRIRARPPRLPRPRPRPFLIPRP
TARGET OF ASSAY: Escherichia coli TOP10
shrunken log2 fold change: -0.367

SEQUENCE STRING: RRIRVRPPRLPRPRPRPNCKPRP
TARGET OF ASSAY: Escherichia coli TOP10
shrunken log2 fold change: -0.368

SEQUENCE STRING: RRIRGRPPRLPRPRPRPHTDPRP
TARGET OF ASSAY: Escherichia coli TOP10
shrunken log2 fold change: 0.103

SEQUENCE STRING: RRIRVRPPRLPRPRPRPQLMPRP
TARGET OF ASSAY: Escherichia coli TOP10
shrunken log2 fold change: -0.224

SEQUENCE STRING: RRIRDRPPRLPRPRPRPVGSPRP
TARGET OF ASSAY: Escherichia coli TOP10;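 further: peptides expressed intracellularly from a pBAD plasmid library in pooled LB shake-flask culture, induced with 0.3% L-arabinose, DNA abundance read by NGS, three biological replicates, DESeq2 with apeglm shrinkage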
shrunken log2 fold change: 0.519

Q: Specify shrunken log2 fold change for RRIRFRPPRLPRPRPRPFQSPRP and stop.
Ans: -0.00947

Q: Give me measured shrunken log2 fold change, please, for this sequence: RRIRDRPPRLPRPRPRPGFTPRP
Ans: 0.125

Q: Retrieve shrunken log2 fold change measured for RRIRNRPPRLPRPRPRPNQRPRP and print it.
Ans: 0.0166
